# Test system: Staphylococcus aureus
# EXPERIMENTAL_DETAILS: Bacteriostatic activity against Staphylococcus aureus ATCC 9144 after 24 hrs by serial dilution microtiter plate method
# Type: functional, organism-based
# CONDITION_DETAILS: ATCC 9144, 24 h
MEASURED_METRIC: IC50

Please report IC50 for every entry that follows.
1. COc1ccc2oc(=O)sc2c1C(=O)/C=C/c1cccc(Cl)c1
2. COc1ccc(/C=C/C(=O)c2c(OC)ccc3oc(=O)sc23)cc1OC
3. COc1ccc(/C=C/C(=O)c2c(OC)ccc3oc(=O)sc23)cc1
4. COc1ccc2oc(=O)sc2c1C(=O)/C=C/c1ccc(Br)cc1
5. COc1ccc2oc(=O)sc2c1C(=O)/C=C/c1ccc(OCCN(C)C)cc1
6. COc1ccc2oc(=O)sc2c1C(=O)/C=C/c1ccccc1Cl
7. COc1ccc2oc(=O)sc2c1C(=O)/C=C/c1ccc(N(C)C)cc1

[A]
1: > 1000 µg/mL; 2: > 1000 µg/mL; 3: > 1000 µg/mL; 4: > 1000 µg/mL; 5: 15.6 µg/mL; 6: > 1000 µg/mL; 7: > 1000 µg/mL

The following compounds each have a reported value; give each one's IC50.
1. COc1ccc2oc(=O)sc2c1C(=O)/C=C/c1ccc([N+](=O)[O-])cc1
2. COc1ccc2oc(=O)sc2c1C(=O)/C=C/c1ccc(OCCN2CCOCC2)cc1
3. COc1ccc2oc(=O)sc2c1C(=O)/C=C/c1ccc(Cl)cc1
4. COc1ccc2oc(=O)sc2c1C(=O)/C=C/c1ccccc1

[A]
> 1000 µg/mL
31.2 µg/mL
7.8 µg/mL
> 1000 µg/mL
